- Assay Method Text: RAM signaling pathway blockade in yeast – S. cerevisiae, Pdr1DBD-CYC8 efflux-inhibited sensitized strain, primary screen (AID 1298);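 also: 0% = DMSO untreated cells without growth and 100% = 10 µM 1-NA-PP1 full growth; higher means more yeast growth rescued from 5-FOA killing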
- Measurement Parameters: S. cerevisiae cbk1-as DSE1-URA3 strain, 5-FOA growth OD615, 2 d; at 50 µM; stronger effect = higher value
Calls of active or inactive are those of the source.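 The calls were made as follows: active = RAM network inhibition above 8.4% in each of two replicates, 3 SD over the compound average; inconclusive = above 8.4% inhibition in only one replicate; inactive = 8.4% inhibition or less in each replicate.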
Measured Attribute: RAM network inhibition

Ask: Answer with the recorded RAM network inhibition of O=C(C1CCN(c2nnc(-n3cccc3)s2)CC1)N1CCc2ccccc2C1 only.
Reply: 6.43% (inactive)

***
Ask: Annotate the molecule O=C1O/C(=C\C(=O)N2CCOCC2)c2ccccc21 with its measured RAM network inhibition.
Reply: 4.69% (inactive)

Ask: Give a short answer stating reported RAM network inhibition for O=C1NC2(Nc3ccccc31)C(=O)Nc1ccccc12 (stereo not drawn) .
Reply: 2.35% (inactive)

Ask: Give reported RAM network inhibition value for O=C(Cn1cc2c(n1)CCCC2)NC1CCN(Cc2ccccc2)CC1
Reply: -0.16% (inactive)

Ask: Give recorded RAM network inhibition. COc1cccc2sc(Nc3nnc(-c4ccccc4Cl)o3)nc12
Reply: 1.26% (inactive)

Ask: Provide measured RAM network inhibition value, entry: CC(O)CSc1nc2c(c(=O)n(C)c(=O)n2C)n1CCCc1ccccc1 (stereo not drawn)
Reply: 5.17% (inactive)

Ask: Give a short answer stating reported RAM network inhibition for CC(C)=C1SC(N2CCN(Cc3ccccc3)CC2)=NC1=O .
Reply: 4.6% (inactive)

Entry source: PubChem BioAssay
